Target: Citron Rho-interacting kinase (Homo sapiens); note: in the data inactive means no Kd found up to 30 µM
Sequence (O14578 whole entry): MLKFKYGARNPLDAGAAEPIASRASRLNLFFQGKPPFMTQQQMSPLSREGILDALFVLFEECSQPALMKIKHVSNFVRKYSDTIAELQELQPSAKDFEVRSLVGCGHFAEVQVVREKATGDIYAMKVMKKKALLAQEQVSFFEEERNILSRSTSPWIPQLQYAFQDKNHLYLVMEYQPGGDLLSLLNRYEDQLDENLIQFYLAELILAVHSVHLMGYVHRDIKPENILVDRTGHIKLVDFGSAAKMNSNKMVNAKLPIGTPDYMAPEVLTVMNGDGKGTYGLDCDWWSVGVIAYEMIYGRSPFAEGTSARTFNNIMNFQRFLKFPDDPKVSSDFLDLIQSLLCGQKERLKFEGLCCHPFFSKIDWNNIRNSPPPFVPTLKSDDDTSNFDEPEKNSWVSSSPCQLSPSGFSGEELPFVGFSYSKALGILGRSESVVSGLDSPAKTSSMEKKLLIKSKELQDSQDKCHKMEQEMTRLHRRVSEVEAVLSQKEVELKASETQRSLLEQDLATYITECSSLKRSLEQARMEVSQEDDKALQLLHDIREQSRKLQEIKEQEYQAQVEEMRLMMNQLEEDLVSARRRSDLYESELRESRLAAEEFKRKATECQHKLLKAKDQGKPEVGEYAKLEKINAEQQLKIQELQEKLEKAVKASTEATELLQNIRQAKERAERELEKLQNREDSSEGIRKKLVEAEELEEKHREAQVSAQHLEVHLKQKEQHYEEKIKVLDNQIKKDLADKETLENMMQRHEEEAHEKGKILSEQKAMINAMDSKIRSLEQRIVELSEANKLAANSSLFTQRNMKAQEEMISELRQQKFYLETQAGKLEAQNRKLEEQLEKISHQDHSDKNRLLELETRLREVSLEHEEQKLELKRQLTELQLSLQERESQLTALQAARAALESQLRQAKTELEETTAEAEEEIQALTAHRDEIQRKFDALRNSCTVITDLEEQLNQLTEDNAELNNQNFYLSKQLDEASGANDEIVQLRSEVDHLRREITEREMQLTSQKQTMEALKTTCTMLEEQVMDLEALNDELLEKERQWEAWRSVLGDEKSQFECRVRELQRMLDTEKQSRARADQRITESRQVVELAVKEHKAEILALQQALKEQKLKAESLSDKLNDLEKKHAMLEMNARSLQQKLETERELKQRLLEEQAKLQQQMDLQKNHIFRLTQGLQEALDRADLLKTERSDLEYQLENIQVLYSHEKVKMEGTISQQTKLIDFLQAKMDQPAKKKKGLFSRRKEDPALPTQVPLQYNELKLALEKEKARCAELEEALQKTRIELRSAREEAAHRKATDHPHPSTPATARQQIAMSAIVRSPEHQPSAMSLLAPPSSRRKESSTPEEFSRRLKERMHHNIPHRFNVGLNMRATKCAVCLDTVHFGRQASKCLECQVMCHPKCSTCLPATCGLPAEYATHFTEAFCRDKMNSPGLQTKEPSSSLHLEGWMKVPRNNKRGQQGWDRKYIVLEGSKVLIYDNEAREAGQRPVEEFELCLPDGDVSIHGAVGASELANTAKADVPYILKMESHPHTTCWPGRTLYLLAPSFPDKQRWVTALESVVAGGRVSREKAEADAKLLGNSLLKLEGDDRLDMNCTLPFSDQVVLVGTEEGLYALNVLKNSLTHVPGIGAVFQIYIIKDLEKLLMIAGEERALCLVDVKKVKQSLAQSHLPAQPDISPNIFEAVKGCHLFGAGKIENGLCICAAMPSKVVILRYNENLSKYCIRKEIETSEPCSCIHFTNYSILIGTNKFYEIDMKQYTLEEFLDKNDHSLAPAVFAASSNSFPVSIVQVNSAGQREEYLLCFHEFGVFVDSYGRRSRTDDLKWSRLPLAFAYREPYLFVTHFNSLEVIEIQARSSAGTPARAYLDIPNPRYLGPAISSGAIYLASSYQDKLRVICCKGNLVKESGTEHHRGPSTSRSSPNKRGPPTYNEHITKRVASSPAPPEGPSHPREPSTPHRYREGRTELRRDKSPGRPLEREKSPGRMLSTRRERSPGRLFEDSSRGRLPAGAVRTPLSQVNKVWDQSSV
The source made the active and inactive calls.
outcomeMeasure: Kd

Cc1cc(C(=O)Nc2cc(Oc3ccc4nc(NC(=O)C5CC5)cn4n3)ccc2C)n(C)n1 [TAK-593] : > 30 µM (inactive)

Item: CCc1nc(C(N)=O)c(Nc2ccc(N3CCC(N4CCN(C)CC4)CC3)c(OC)c2)nc1NC1CCOCC1 [GILTERITINIB] | Kd: 2.35 µM (active)

Item: N#CCNC(=O)c1ccc(-c2ccnc(Nc3ccc(N4CCOCC4)cc3)n2)cc1 [MOMELOTINIB] | Kd: 0.313 µM (active)

Item: O[C@H]1CC[C@H](Nc2ncc3nc(Nc4c(F)cc(F)cc4F)n([C@H]4CCOC4)c3n2)CC1 [TANZISERTIB] | Kd: > 30 µM (inactive)

Item: O=C(Nc1ccc(OC(F)(F)F)cc1)c1sccc1NCc1ccnc2ccccc12 [OSI-930] | Kd: > 30 µM (inactive)

Item: c1cc(OCCN2CCCCC2)cc(-c2n[nH]c3ccc(-c4nc[nH]n4)cc23)c1 [CC-401] | Kd: > 30 µM (inactive)

Item: O=C(NC[C@H](O)CO)c1ccncc1Nc1ccc(I)cc1F [PIMASERTIB] | Kd: > 30 µM (inactive)

Item: COc1cc2ncnc3c2cc1OCCCCCN(C)Cc1ccc(Br)cc1N3 [JNJ-26483327] | Kd: > 30 µM (inactive)

###

Target: Serine/threonine-protein kinase 16 (Homo sapiens); note: in the data inactive means no Kd found up to 30 µM
Sequence (O75716 whole entry): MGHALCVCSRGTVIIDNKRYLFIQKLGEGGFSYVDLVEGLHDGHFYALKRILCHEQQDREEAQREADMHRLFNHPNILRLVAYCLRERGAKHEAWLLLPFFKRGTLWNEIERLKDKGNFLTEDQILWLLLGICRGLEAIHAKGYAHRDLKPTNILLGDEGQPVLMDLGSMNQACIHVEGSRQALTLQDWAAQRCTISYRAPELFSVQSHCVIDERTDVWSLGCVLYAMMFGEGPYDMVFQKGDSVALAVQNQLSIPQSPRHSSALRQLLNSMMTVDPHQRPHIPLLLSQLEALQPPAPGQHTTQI
Active and inactive are the calls of the source.
Outcome (select one): active, inactive

O=S(=O)(c1cccc2c(O)nccc12)N1CCCNCC1 [HYDROXYFASUDIL] : inactive
C#Cc1cccc(Nc2ncnc3cc4c(cc23)OCCOCCOCCO4)c1 : inactive
CCc1nc(C(N)=O)c(Nc2ccc(N3CCC(N4CCN(C)CC4)CC3)c(OC)c2)nc1NC1CCOCC1 : active

Turning now to a further record.
Please state the recorded outcome for this compound: COc1cccc2cc(-c3nc([C@H]4CC[C@H](C(=O)O)CC4)n4ncnc(N)c34)[nH]c12
inactive

###

Each record here notes measured Kd.
Target: Serine/threonine-protein kinase TAO1 (Homo sapiens, UniProt Q7L7X3); note: in the data inactive means no Kd found up to 30 µM
Sequence (Q7L7X3 whole entry): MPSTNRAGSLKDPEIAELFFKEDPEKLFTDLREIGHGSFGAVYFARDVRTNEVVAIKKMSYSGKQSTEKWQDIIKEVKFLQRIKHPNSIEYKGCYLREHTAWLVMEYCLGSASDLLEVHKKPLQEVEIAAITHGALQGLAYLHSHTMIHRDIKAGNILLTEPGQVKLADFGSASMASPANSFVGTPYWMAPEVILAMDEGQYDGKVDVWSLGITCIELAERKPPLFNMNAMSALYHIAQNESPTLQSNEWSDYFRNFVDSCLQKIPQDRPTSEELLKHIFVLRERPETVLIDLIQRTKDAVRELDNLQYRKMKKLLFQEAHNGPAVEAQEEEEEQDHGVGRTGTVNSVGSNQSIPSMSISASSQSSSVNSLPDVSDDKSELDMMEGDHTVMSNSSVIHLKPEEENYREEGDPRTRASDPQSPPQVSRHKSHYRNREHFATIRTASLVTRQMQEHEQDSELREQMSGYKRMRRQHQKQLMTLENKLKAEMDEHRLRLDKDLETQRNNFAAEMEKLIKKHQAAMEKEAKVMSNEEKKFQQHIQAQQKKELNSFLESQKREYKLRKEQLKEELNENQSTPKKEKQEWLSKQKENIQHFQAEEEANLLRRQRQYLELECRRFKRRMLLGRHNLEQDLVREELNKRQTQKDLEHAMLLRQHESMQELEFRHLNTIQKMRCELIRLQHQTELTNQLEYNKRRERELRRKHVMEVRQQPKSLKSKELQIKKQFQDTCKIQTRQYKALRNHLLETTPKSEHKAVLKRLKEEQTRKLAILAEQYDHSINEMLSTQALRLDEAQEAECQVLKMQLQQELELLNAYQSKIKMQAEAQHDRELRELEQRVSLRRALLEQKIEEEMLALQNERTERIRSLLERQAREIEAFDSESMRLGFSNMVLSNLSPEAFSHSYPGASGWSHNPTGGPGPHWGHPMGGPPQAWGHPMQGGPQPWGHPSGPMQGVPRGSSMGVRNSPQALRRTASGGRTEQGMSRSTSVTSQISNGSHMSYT
Calls of active or inactive are those of the source.

Item: CNC(=O)c1ccc(Nc2ncc(C(F)(F)F)c(NCc3nccnc3N(C)S(C)(=O)=O)n2)cc1 [DEFACTINIB] | Kd: 3.23 µM (active)

Item: Cn1c(=O)c(F)c(Nc2ccc(I)cc2F)c2c(=O)n(C[C@@H](O)CO)cnc21 [TAK-733] | Kd: > 30 µM (inactive)

Item: COc1ccc2c(OCc3nnc4ccc(-c5ccccc5)nn34)ccnc2c1 [AMG-208] | Kd: > 30 µM (inactive)

Item: COc1cc(Nc2ncc(F)c(Nc3ccc4c(n3)N(COP(=O)(O)O)C(=O)C(C)(C)O4)n2)cc(OC)c1OC [FOSTAMATINIB] | Kd: > 30 µM (inactive)
